These entries and their values trace back to paper PMC8570331.

measurement protocol: Proton dissociation constants of the ligands (pH-potentiometry, UV-vis, 1H NMR titrations)
Format: physicochemical
test conditions: aqueous solution, pH-potentiometry; I = 0.2 M KNO3; T = 25.0 °C; read-out: pKa (NqH+)
measured quantity: pKa
// no unit, no text: just the number

Report pKa for O=C(O)[C@H]1CCCCN1Cc1cc(Cl)c2cccnc2c1O
2.42

---

system tested: HSA site I (subdomain IIA) (Homo sapiens)
Construct: purchased Sigma-Aldrich A8763
Sequence (P02768 25-609): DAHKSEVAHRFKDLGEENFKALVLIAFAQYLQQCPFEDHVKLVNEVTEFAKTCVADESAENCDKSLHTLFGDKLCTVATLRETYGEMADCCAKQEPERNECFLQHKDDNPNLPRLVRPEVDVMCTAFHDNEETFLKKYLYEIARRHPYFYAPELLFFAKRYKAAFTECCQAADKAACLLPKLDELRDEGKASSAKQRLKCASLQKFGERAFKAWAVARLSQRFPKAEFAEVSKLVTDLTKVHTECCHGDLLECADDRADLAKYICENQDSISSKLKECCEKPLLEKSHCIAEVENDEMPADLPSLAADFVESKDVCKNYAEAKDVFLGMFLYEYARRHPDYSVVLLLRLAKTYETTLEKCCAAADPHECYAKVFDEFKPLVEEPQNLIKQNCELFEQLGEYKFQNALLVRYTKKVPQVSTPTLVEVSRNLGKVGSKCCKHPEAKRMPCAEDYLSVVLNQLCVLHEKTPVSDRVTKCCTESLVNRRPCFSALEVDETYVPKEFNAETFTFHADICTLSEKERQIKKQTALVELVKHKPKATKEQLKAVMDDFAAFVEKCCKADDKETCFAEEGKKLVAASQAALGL
measurement protocol: Trp-214 quenching, spectrofluorometry
Format: binding
test conditions: cHSA = 1 µM, pH 7.4 (PBS’), λEX = 295 nm
Description: Tryptophan (Trp-214) quenching and dansylglycine (DG) site marker displacement experiments were performed to calculate binding constants for site I and II, respectively, similar to our previous works. Fluorescence measurements were carried out on a Fluoromax (Horiba Jobin Yvon, Longjumeau, France) spectrofluorometer using 1 cm × 1 cm quartz cuvette. […] The calculated conditional stability constants for HSA–complex species were obtained using the computer program HypSpec. […]
measured quantity: Trp-214 Quenching logKQ′, Site I
// no unit, no text: just the number

molecule: Cc1c(C)c(C)[c-](C)c1C.O=C(O)[C@H]1CCC[NH+]1Cc1cc(Cl)c2cccnc2c1[O-].[Cl-].[Cl-].[Rh+3] [RhCp*–HQCl-D-Pro, [RhCp*(HQCl-D-Pro)Cl]Cl]
Trp-214 Quenching logKQ′, Site I: 5.6

Retrieve Trp-214 Quenching logKQ′, Site I on HSA site I (subdomain IIA) (Homo sapiens); query Cc1ccc(C(C)C)cc1.O=C(O)[C@H]1CCCC[NH+]1Cc1cc(Cl)c2cccnc2c1[O-].[Cl-].[Cl-].[Ru+2] [RuCym–HQCl-D-hPro, [RuCym(HQCl-D-hPro)Cl]Cl]
5.3

Retrieve Trp-214 Quenching logKQ′, Site I on HSA site I (subdomain IIA) (Homo sapiens); query Cc1c(C)c(C)[c-](C)c1C.O=C(O)[C@H]1CCCC[NH+]1Cc1cc(Cl)c2cccnc2c1[O-].[Cl-].[Cl-].[Rh+3] [RhCp*–HQCl-D-hPro, [RhCp*(HQCl-D-hPro)Cl]Cl]
5.6

Retrieve Trp-214 Quenching logKQ′, Site I on HSA site I (subdomain IIA) (Homo sapiens); query Cc1ccc(C(C)C)cc1.O=C(O)[C@H]1CCC[NH+]1Cc1cc(Cl)c2cccnc2c1[O-].[Cl-].[Cl-].[Ru+2] [RuCym–HQCl-D-Pro, [RuCym(HQCl-D-Pro)Cl]Cl]
5.5
